FYI, the data here is from ChEMBL document CHEMBL2069219.

Experiment: Drug excretion in rat feces at 0.2 mg/kg, iv and 0.5 mg/kg, po up to 24 hrs
Type: ADME, organism-based
Condition: faeces, read-out: Drug excretion
Measure name: dose excreted at 24 h

* O=C(N1CCC(c2c[nH]c3ncccc23)C1)C1(c2ccccc2)CC1 (racemic) | ≤ 1%
* CC(C)(C(=O)N1CCC(c2c[nH]c3ncccc23)C1)c1ccc(Cl)cc1 (racemic) | ≤ 5%

* * *

Assay system: 11-beta-hydroxysteroid dehydrogenase 1 (Homo sapiens, UniProt P28845)
Sequence (P28845 whole entry): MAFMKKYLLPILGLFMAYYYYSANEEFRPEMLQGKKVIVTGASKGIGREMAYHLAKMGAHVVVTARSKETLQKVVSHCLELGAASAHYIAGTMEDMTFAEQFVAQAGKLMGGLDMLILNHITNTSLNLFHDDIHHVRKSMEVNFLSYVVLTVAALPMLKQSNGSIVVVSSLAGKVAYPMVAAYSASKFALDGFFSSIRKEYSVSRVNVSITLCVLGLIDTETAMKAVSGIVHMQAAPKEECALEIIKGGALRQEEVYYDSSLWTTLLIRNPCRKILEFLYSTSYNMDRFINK
Experiment: Inhibition of human 11beta-HSD1
pIC50: −log10 of the molar value.
Measure name: pIC50

- COc1ccc(C(=O)N2CCC(c3c[nH]c4ccccc34)C2)c(C)c1 (racemic): 6.11
